Origin of the recorded values: ChEMBL document CHEMBL3739316

Test system: Mus musculus
ASSAY_SUMMARY: Dose normalized AUC in orally dosed mouse
Assay type: ADME, organism-based
COND: in vivo, po
MEASURE: AUC/dose (µM·kg·h/mg)

Consider the following illustrative entries.
| STRUCTURE_NOTATION | DATA_VALUE |
| --- | --- |
| CC(=O)O[C@@H]1C[C@@]23COCC(C)([C@H]1OC[C@@](C)(N)C(C)C)[C@@H]2CC[C@H]1C3=CC[C@@]2(C)[C@H](C(=O)O)[C@@](C)([C@H](C)C(C)C)CC[C@]12C | 0.73 |
| CCCCN[C@@](C)(CO[C@H]1[C@H](n2nnc(N)n2)C[C@@]23COCC1(C)[C@@H]2CC[C@H]1C3=CC[C@@]2(C)[C@H](C(=O)O)[C@@](C)([C@H](C)C(C)C)CC[C@]12C)C(C)C | 0.74 |
| CCCN[C@@](C)(CO[C@H]1[C@H](n2nnc(N)n2)C[C@@]23COCC1(C)[C@@H]2CC[C@H]1C3=CC[C@@]2(C)[C@H](C(=O)O)[C@@](C)([C@H](C)C(C)C)CC[C@]12C)C(C)C | 0.35 |

[1] CC(=O)O[C@@H]1C[C@@]23COCC(C)([C@H]1OCCN)[C@@H]2CC[C@H]1C3=CC[C@@]2(C)[C@H](C(=O)O)[C@@](C)([C@H](C)C(C)C)CC[C@]12C
[2] CC(=O)O[C@@H]1C[C@@]23COCC(C)([C@H]1OCC(C)(C)N)[C@@H]2CC[C@H]1C3=CC[C@@]2(C)[C@H](C(=O)O)[C@@](C)([C@H](C)C(C)C)CC[C@]12C
// pick larger AUC/dose from pair: 1 vs 2 Please respond with the label that marks your chosen entry. 2
(2: 1.22 µM·kg·h/mg, 1: 0.54 µM·kg·h/mg)

---

// values below are reported survival at 25 mg/kg
Test system: Candida albicans
ASSAY_SUMMARY: Antifungal activity against Candida albicans MY1055 in DBA/2N mouse candidiasis model assessed as mouse survival at 25 mg/kg, po bid after 7 days by Target Organ Kidney Assay relative to sham treated control
Assay type: functional
COND: 168 h
Kindly provide the numeric value in % only, without the unit symbol.

Consider the following illustrative entries.
| STRUCTURE_NOTATION | UNIT_TEXT | DATA_VALUE |
| --- | --- | --- |
| CCCN[C@@](C)(CO[C@H]1[C@H](n2nnc(N)n2)C[C@@]23COCC1(C)[C@@H]2CC[C@H]1C3=CC[C@@]2(C)[C@H](C(=O)O)[C@@](C)([C@H](C)C(C)C)CC[C@]12C)C(C)C | % | 100 |
| CCN[C@@](C)(CO[C@H]1[C@H](n2nnc(N)n2)C[C@@]23COCC1(C)[C@@H]2CC[C@H]1C3=CC[C@@]2(C)[C@H](C(=O)O)[C@@](C)([C@H](C)C(C)C)CC[C@]12C)C(C)C | % | 100 |

Item under review: `CC(C)[C@@H](C)[C@@]1(C)CC[C@]2(C)[C@H]3CC[C@H]4C5(C)COC[C@@]4(C[C@@H](n4nnc(N)n4)[C@@H]5OC[C@@](C)(C(C)C)N(C)C)C3=CC[C@@]2(C)[C@@H]1C(=O)O` . Reported survival at 25 mg/kg? 100

Item under review: `CN[C@@](C)(CO[C@H]1[C@H](n2nnc(N)n2)C[C@@]23COCC1(C)[C@@H]2CC[C@H]1C3=CC[C@@]2(C)[C@H](C(=O)O)[C@@](C)([C@H](C)C(C)C)CC[C@]12C)C(C)C` . Reported survival at 25 mg/kg? 100

---

TGT: Beta-1,3-glucan synthase (Candida albicans, UniProt O13383)
Sequence (O13383 whole entry): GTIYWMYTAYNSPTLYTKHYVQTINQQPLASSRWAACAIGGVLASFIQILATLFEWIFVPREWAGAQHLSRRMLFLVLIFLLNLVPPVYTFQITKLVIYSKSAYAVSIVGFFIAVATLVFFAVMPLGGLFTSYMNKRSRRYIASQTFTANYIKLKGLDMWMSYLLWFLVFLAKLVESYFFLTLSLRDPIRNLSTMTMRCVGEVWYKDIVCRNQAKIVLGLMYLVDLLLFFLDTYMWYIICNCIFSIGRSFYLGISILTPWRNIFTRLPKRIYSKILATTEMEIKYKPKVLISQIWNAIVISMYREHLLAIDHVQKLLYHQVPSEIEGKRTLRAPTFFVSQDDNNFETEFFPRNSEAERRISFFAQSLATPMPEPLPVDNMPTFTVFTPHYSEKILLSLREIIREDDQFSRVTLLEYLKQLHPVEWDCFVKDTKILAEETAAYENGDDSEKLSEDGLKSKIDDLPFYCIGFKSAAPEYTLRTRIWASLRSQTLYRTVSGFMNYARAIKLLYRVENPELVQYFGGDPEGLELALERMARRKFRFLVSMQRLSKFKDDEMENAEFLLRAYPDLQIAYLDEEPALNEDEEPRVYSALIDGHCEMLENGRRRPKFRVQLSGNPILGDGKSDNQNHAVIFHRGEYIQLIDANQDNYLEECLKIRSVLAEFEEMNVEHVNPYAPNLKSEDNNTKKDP
pIC50: −log10 of the molar value.
MEASURE: pIC50

Consider the following illustrative entries.
| STRUCTURE_NOTATION | pIC50 |
| --- | --- |
| CC(C)[C@@H](C)[C@@]1(C)CC[C@]2(C)[C@H]3CC[C@H]4C5(C)COC[C@@]4(C[C@@H](n4nnnc4N)[C@@H]5OC[C@](C)(N)C(C)C)C3=CC[C@@]2(C)[C@@H]1C(=O)O | 7.25 |
| CCCN[C@@](C)(CO[C@H]1[C@H](n2nnc(N)n2)C[C@@]23COCC1(C)[C@@H]2CC[C@H]1C3=CC[C@@]2(C)[C@H](C(=O)O)[C@@](C)([C@H](C)C(C)C)CC[C@]12C)C(C)C | 7.94 |
| CCN[C@@](C)(CO[C@H]1[C@H](n2nnc(N)n2)C[C@@]23COCC1(C)[C@@H]2CC[C@H]1C3=CC[C@@]2(C)[C@H](C(=O)O)[C@@](C)([C@H](C)C(C)C)CC[C@]12C)C(C)C | 8.14 |
| CC(C)[C@@H](C)[C@@]1(C)CC[C@]2(C)[C@H]3CC[C@H]4C5(C)COC[C@@]4(C[C@@H](n4nnc(N)n4)[C@@H]5OC[C@@](C)(C(C)C)N(C)C)C3=CC[C@@]2(C)[C@@H]1C(=O)O | 7.88 |
| CN[C@@](C)(CO[C@H]1[C@H](n2nnc(N)n2)C[C@@]23COCC1(C)[C@@H]2CC[C@H]1C3=CC[C@@]2(C)[C@H](C(=O)O)[C@@](C)([C@H](C)C(C)C)CC[C@]12C)C(C)C | 8.52 |

[P] CC(C)[C@@H](C)[C@@]1(C)CC[C@]2(C)[C@H]3CC[C@H]4C5(C)COC[C@@]4(C[C@@H](n4cc6ccccc6n4)[C@@H]5O[C@@H]4O[C@H](CO)[C@@H](O)[C@H](O)[C@H]4O)C3=CC[C@@]2(C)[C@@H]1C(=O)O
[Q] CC(=O)Nc1nnnn1[C@@H]1C[C@@]23COCC(C)([C@H]1OC[C@](C)(N)C(C)C)[C@@H]2CC[C@H]1C3=CC[C@@]2(C)[C@H](C(=O)O)[C@@](C)([C@H](C)C(C)C)CC[C@]12C
Smaller pIC50 value, P vs Q ? Please respond with the label that marks your chosen entry. P

---

ASSAY_SUMMARY: Oral bioavailability in rat
Type: ADME, organism-based
COND: in vivo
MEASURE: bioavailability (%)
Kindly provide the numeric value in % only, without the unit symbol.

Item under review: `CC(=O)O[C@@H]1C[C@@]23COCC(C)([C@H]1O[C@@H]1O[C@H](CO)[C@@H](O)[C@H](O)[C@H]1O)[C@@H]2CC[C@H]1C3=CC[C@@]2(C)[C@H](C(=O)O)[C@@](C)([C@H](C)C(C)C)CC[C@]12C` . Reported bioavailability? 1

---

System: Candida albicans
ASSAY_SUMMARY: Antifungal activity against Candida albicans MY1055 in DBA/2N mouse candidiasis model assessed as mouse survival at 12.5 mg/kg, po bid after 7 days by Target Organ Kidney Assay relative to sham treated control
Type: functional
COND: 168 h
MEASURE: survival at 12.5 mg/kg (%)
Kindly provide the numeric value in % only, without the unit symbol.

| STRUCTURE_NOTATION | TGT | UNIT_TEXT | survival at 12.5 mg/kg |
| --- | --- | --- | --- |
| CC(C)[C@@H](C)[C@@]1(C)CC[C@]2(C)[C@H]3CC[C@H]4C5(C)COC[C@@]4(C[C@@H](n4nnc(N)n4)[C@@H]5OC[C@@](C)(C(C)C)N(C)C)C3=CC[C@@]2(C)[C@@H]1C(=O)O | Candida albicans | % | 100 |
| CN[C@@](C)(CO[C@H]1[C@H](n2nnc(N)n2)C[C@@]23COCC1(C)[C@@H]2CC[C@H]1C3=CC[C@@]2(C)[C@H](C(=O)O)[C@@](C)([C@H](C)C(C)C)CC[C@]12C)C(C)C | Candida albicans | % | 20 |
| CCCN[C@@](C)(CO[C@H]1[C@H](n2nnc(N)n2)C[C@@]23COCC1(C)[C@@H]2CC[C@H]1C3=CC[C@@]2(C)[C@H](C(=O)O)[C@@](C)([C@H](C)C(C)C)CC[C@]12C)C(C)C | Candida albicans | % | 100 |

// next entry
Item under review: `CCN[C@@](C)(CO[C@H]1[C@H](n2nnc(N)n2)C[C@@]23COCC1(C)[C@@H]2CC[C@H]1C3=CC[C@@]2(C)[C@H](C(=O)O)[C@@](C)([C@H](C)C(C)C)CC[C@]12C)C(C)C` . Reported survival at 12.5 mg/kg? 60

---

Tested on: Mus musculus
ASSAY_SUMMARY: AUC (0 to 24 hrs) in DBA/2J mouse assessed as total metabolites at 10 mg/kg, po
Assay type: ADME, organism-based
COND: in vivo
MEASURE: Drug uptake (%)
Kindly provide the numeric value in % only, without the unit symbol.

| STRUCTURE_NOTATION | Drug uptake (%) |
| --- | --- |
| CC(C)[C@@H](C)[C@@]1(C)CC[C@]2(C)[C@H]3CC[C@H]4C5(C)COC[C@@]4(C[C@@H](n4nnc(N)n4)[C@@H]5OC[C@@](C)(C(C)C)N(C)C)C3=CC[C@@]2(C)[C@@H]1C(=O)O | 51.3 |
| CCN[C@@](C)(CO[C@H]1[C@H](n2nnc(N)n2)C[C@@]23COCC1(C)[C@@H]2CC[C@H]1C3=CC[C@@]2(C)[C@H](C(=O)O)[C@@](C)([C@H](C)C(C)C)CC[C@]12C)C(C)C | 6.4 |
| CCCN[C@@](C)(CO[C@H]1[C@H](n2nnc(N)n2)C[C@@]23COCC1(C)[C@@H]2CC[C@H]1C3=CC[C@@]2(C)[C@H](C(=O)O)[C@@](C)([C@H](C)C(C)C)CC[C@]12C)C(C)C | 10.3 |

// next entry
Item under review: `CN[C@@](C)(CO[C@H]1[C@H](n2nnc(N)n2)C[C@@]23COCC1(C)[C@@H]2CC[C@H]1C3=CC[C@@]2(C)[C@H](C(=O)O)[C@@](C)([C@H](C)C(C)C)CC[C@]12C)C(C)C` . Reported Drug uptake? 0.5
